# Test system: CN0375-F725-PDC KRAS spheroid viability
# testProtocol: Anticancer human tumor CN0375-F725-PDC patient-derived colon carcinoma cell line growth inhibition [KRAS2]; active = viability on the fitted dose curve at most 10% of control; inactive = the rest
# condition: second compound 3.16 µM; first compound 0.0316 µM; spheroids with HUVEC and MSC
# From the text: Multicellular complex tumor spheroid response to RAS pathway inhibitors in combination with a targeted agents in patient-derived cell lines with oncogenic KRAS variants from multiple cancer types A high-throughput screen of multi-cell type tumor spheroids was designed to identify active combinations of targeted small molecules and KRAS pathway inhibitors. […] Compounds. […] If the clinical Cmax for an agent had not been determined, the highest concentration tested was 10 microM. […]
Field 'call' accepts True = active, False = inactive

CC(=O)OC12COC1CC(O)C1(C)C(=O)C(O)C3=C(C)C(OC(=O)C(O)C(NC(=O)OC(C)(C)C)c4ccccc4)CC(O)(C(OC(=O)c4ccccc4)C21)C3(C)C (stereo not drawn) + C=CC(=O)N1CCN(c2nc(OCC3CCCN3C)nc3c2CCN(c2cccc4cccc(C)c24)C3)CC1CC#N ... False
CC(C)NCC(C(=O)N1CCN(c2ncnc3c2C(C)CC3O)CC1)c1ccc(Cl)cc1 (stereo not drawn) + COc1cc2nc(C)nc(NC(C)c3cc(N)cc(C(F)(F)F)c3)c2cc1OC1CCOC1 ... False

Please look at the following compound next.
Inquiry: Per the assay record, what outcome was assigned to CCNC(=O)CC1N=C(c2ccc(Cl)cc2)c2cc(OC)ccc2-n2c(C)nnc21 (stereo not drawn) + CNCc1ccccc1-c1csc(C(C)Nc2nc(C)nc3cc(OC)c(OC)cc23)c1 ?
Reply text: True

---

# System: CN0375-F725-PDC KRAS spheroid viability
# testProtocol: Anticancer human tumor CN0375-F725-PDC cell line growth inhibition [KRAS2];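 also: spheroids exposed to agents for 7 days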
# condition: second compound 3.16 µM; first compound 0.1 µM; stronger effect = lower value; spheroids with HUVEC and MSC
# From the text: Multicellular complex tumor spheroid response to RAS pathway inhibitors in combination with a targeted agents in patient-derived cell lines with oncogenic KRAS variants from multiple cancer types A high-throughput screen of multi-cell type tumor spheroids was designed to identify active combinations of targeted small molecules and KRAS pathway inhibitors. […] Compounds. […] If the clinical Cmax for an agent had not been determined, the highest concentration tested was 10 microM. […]
Label key: y means viability, T/C under 20%; n means viability, T/C of 20% or more.

Example cases with answers are listed next.
CN(C)C/C=C/C(=O)Nc1cc2c(Nc3ccc(F)c(Cl)c3)ncnc2cc1O[C@H]1CCOC1 + CC1OCC2(CCN(c3cnc(Sc4ccnc(N)c4Cl)c(N)n3)CC2)C1N ... n
COC(=O)c1ccc2c(C(=Nc3ccc(N(C)C(=O)CN4CCN(C)CC4)cc3)c3ccccc3)c(O)[nH]c2c1 + CNCc1ccccc1-c1csc(C(C)Nc2nc(C)nc3cc(OC)c(OC)cc23)c1 ... y
O=C(c1cc(Cc2n[nH]c(=O)c3ccccc23)ccc1F)N1CCN(C(=O)C2CC2)CC1 + C=CC(=O)N1CCN(c2nc(=O)n(-c3c(C)ccnc3C(C)C)c3nc(-c4c(O)cccc4F)c(F)cc23)C(C)C1 ... n
Cn1ncnc1[C@H]1c2n[nH]c(=O)c3cc(F)cc(c23)N[C@@H]1c1ccc(F)cc1 + C=CC(=O)N1CCN(c2nc(OCC3CCCN3C)nc3c2CCN(c2cccc4cccc(C)c24)C3)CC1CC#N ... y
CC(C)NCC(C(=O)N1CCN(c2ncnc3c2C(C)CC3O)CC1)c1ccc(Cl)cc1 (stereo not given) + COc1cc2nc(C)nc(NC(C)c3cc(N)cc(C(F)(F)F)c3)c2cc1OC1CCOC1 ... n

Inquiry: Lab log: compare recorded viability, T/C with 20%; is it strictly lower for Cn1nccc1Nc1nccc(-c2cc3c(s2)C(C)(C)N(CCN2CCOCC2)C3=O)n1 + C=CC(=O)N1CCN(c2nc(=O)n(-c3c(C)ccnc3C(C)C)c3nc(-c4c(O)cccc4F)c(F)cc23)C(C)C1 ?
Reply text: n

Inquiry: Repeat for the following compound: CC1(C)CCC(CN2CCN(c3ccc(C(=O)NS(=O)(=O)c4ccc(NCC5CCOCC5)c([N+](=O)[O-])c4)c(Oc4cnc5[nH]ccc5c4)c3)CC2)=C(c2ccc(Cl)cc2)C1 + CNCc1ccccc1-c1csc(C(C)Nc2nc(C)nc3cc(OC)c(OC)cc23)c1
Reply text: y

Inquiry: Repeat for the following compound: CCNC(=O)CC1N=C(c2ccc(Cl)cc2)c2cc(OC)ccc2-n2c(C)nnc21 (stereo not given) + COc1cc2nc(C)nc(NC(C)c3cc(N)cc(C(F)(F)F)c3)c2cc1OC1CCOC1
Reply text: n

Inquiry: Repeat for the following compound: COc1cc(Nc2ncc3c(n2)-c2ccc(Cl)cc2C(c2c(F)cccc2OC)=NC3)ccc1C(=O)O + C=CC(=O)N1CCN(c2nc(=O)n(-c3c(C)ccnc3C(C)C)c3nc(-c4c(O)cccc4F)c(F)cc23)C(C)C1
Reply text: n

---

# System: CN0375-F725-PDC KRAS spheroid viability
# testProtocol: Anticancer human tumor CN0375-F725-PDC cell line growth inhibition [KRAS2];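 also: spheroids exposed to agents for 7 days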
# condition: second compound 0.316 µM; first compound 0.1 µM; stronger effect = lower value; spheroids with HUVEC and MSC
Label key: label 1 means viability, T/C under 90%; label 0 means viability, T/C of 90% or more.

Example cases with answers are listed next.
Cn1ncnc1[C@H]1c2n[nH]c(=O)c3cc(F)cc(c23)N[C@@H]1c1ccc(F)cc1 + COc1cc2nc(C)nc(NC(C)c3cc(N)cc(C(F)(F)F)c3)c2cc1OC1CCOC1 ... label 0
COc1cc2nccc(Oc3ccc(NC(=O)C4(C(=O)Nc5ccc(F)cc5)CC4)cc3)c2cc1OC + CNCc1ccccc1-c1csc(C(C)Nc2nc(C)nc3cc(OC)c(OC)cc23)c1 ... label 0
CC(C)NCC(C(=O)N1CCN(c2ncnc3c2C(C)CC3O)CC1)c1ccc(Cl)cc1 (stereo unspecified) + COc1cc2nc(C)nc(NC(C)c3cc(N)cc(C(F)(F)F)c3)c2cc1OC1CCOC1 ... label 0
CC1OCC2(CCN(c3cnc(Sc4ccnc(N)c4Cl)c(N)n3)CC2)C1N (stereo unspecified) + C=CC(=O)N1CCN(c2nc(=O)n(-c3c(C)ccnc3C(C)C)c3nc(-c4c(O)cccc4F)c(F)cc23)C(C)C1 ... label 1
CC(=O)OC12COC1CC(O)C1(C)C(=O)C(O)C3=C(C)C(OC(=O)C(O)C(NC(=O)OC(C)(C)C)c4ccccc4)CC(O)(C(OC(=O)c4ccccc4)C21)C3(C)C (stereo unspecified) + COc1cc2nc(C)nc(NC(C)c3cc(N)cc(C(F)(F)F)c3)c2cc1OC1CCOC1 ... label 1

Inquiry: Lab log: compare recorded viability, T/C with 90%; is it strictly lower for COc1cc(Nc2ncc3c(n2)-c2ccc(Cl)cc2C(c2c(F)cccc2OC)=NC3)ccc1C(=O)O + CC1OCC2(CCN(c3cnc(Sc4ccnc(N)c4Cl)c(N)n3)CC2)C1N ?
Reply text: label 1

Inquiry: Repeat for the following compound: CC(=O)OC12COC1CC(O)C1(C)C(=O)C(O)C3=C(C)C(OC(=O)C(O)C(NC(=O)OC(C)(C)C)c4ccccc4)CC(O)(C(OC(=O)c4ccccc4)C21)C3(C)C (stereo unspecified) + C=CC(=O)N1CCN(c2nc(=O)n(-c3c(C)ccnc3C(C)C)c3nc(-c4c(O)cccc4F)c(F)cc23)C(C)C1
Reply text: label 0

---

Listed compounds paired with reported IC50
# Tested on: CN0375-F725-PDC KRAS spheroid viability
# testProtocol: Anticancer human tumor CN0375-F725-PDC cell line growth inhibition [KRAS2];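 also: spheroids exposed to agents for 7 days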
# condition: curve of first compound; second compound 10 µM; spheroids with HUVEC and MSC

Worked examples, 2 compounds total:
CC(=O)Nc1cccc(-n2c(=O)n(C3CC3)c(=O)c3c(Nc4ccc(I)cc4F)n(C)c(=O)c(C)c32)c1 + COc1cc2nc(C)nc(NC(C)c3cc(N)cc(C(F)(F)F)c3)c2cc1OC1CCOC1 ... < 0.1 nM
CC1OCC2(CCN(c3cnc(Sc4ccnc(N)c4Cl)c(N)n3)CC2)C1N (stereo not given) + COc1cc2nc(C)nc(NC(C)c3cc(N)cc(C(F)(F)F)c3)c2cc1OC1CCOC1 ... < 31.6 nM

Inquiry: Requested field: IC50. Item: O=C(c1cc(Cc2n[nH]c(=O)c3ccccc23)ccc1F)N1CCN(C(=O)C2CC2)CC1 + C=CC(=O)N1CCN(c2nc(=O)n(-c3c(C)ccnc3C(C)C)c3nc(-c4c(O)cccc4F)c(F)cc23)C(C)C1
Reply text: > 10000 nM

Inquiry: Repeat for the following compound: CN(C)C/C=C/C(=O)Nc1cc2c(Nc3ccc(F)c(Cl)c3)ncnc2cc1O[C@H]1CCOC1 + CC1OCC2(CCN(c3cnc(Sc4ccnc(N)c4Cl)c(N)n3)CC2)C1N
Reply text: > 100 nM

Inquiry: Repeat for the following compound: CC(=O)Nc1cccc(-n2c(=O)n(C3CC3)c(=O)c3c(Nc4ccc(I)cc4F)n(C)c(=O)c(C)c32)c1 + CC1OCC2(CCN(c3cnc(Sc4ccnc(N)c4Cl)c(N)n3)CC2)C1N
Reply text: 0.257 nM
